Task for the reader: assign each of the following compounds its reported inhibition.
# assayed-target: Amyloid-beta precursor protein (Homo sapiens)
# assay-details: Inhibition of self-induced amyloid beta (1 to 42) (unknown origin) aggregation at 100 uM after 24 hrs by ThT fluorescence assay relative to control
Give bare numbers, in %.

Example cases with answers are listed next.
{"columns": ["compound", "reported"],
 "data": [
  ["C#CCSCC(NC(=O)CCCNc1c2c(nc3cc(Cl)ccc13)CCCC2)C(=O)Nc1nc2ccccc2s1 (centres undefined)", 24.1],
  ["C=CCSCC(NC(=O)CCCNc1c2c(nc3cc(Cl)ccc13)CCCC2)C(=O)Nc1nc2ccccc2s1 (centres undefined)", 31.6]
]}

Would you be so kind as to report inhibition for each listed record?
1. C=CCSCC(NC(=O)CCCCCNc1c2c(nc3ccccc13)CCCC2)C(=O)Nc1nc2ccccc2s1 (centres undefined)
2. C#CCSCC(NC(=O)CCCNc1c2c(nc3ccccc13)CCCC2)C(=O)Nc1nc2ccccc2s1 (centres undefined)

Found:
1: 78.2; 2: 77.2
